# credit: patent US20250042896A1

Molecular target: Cbl-b protein and UbcH5B-Ub (Homo sapiens (Human))
Sequence (Q13191 whole entry, species assumed): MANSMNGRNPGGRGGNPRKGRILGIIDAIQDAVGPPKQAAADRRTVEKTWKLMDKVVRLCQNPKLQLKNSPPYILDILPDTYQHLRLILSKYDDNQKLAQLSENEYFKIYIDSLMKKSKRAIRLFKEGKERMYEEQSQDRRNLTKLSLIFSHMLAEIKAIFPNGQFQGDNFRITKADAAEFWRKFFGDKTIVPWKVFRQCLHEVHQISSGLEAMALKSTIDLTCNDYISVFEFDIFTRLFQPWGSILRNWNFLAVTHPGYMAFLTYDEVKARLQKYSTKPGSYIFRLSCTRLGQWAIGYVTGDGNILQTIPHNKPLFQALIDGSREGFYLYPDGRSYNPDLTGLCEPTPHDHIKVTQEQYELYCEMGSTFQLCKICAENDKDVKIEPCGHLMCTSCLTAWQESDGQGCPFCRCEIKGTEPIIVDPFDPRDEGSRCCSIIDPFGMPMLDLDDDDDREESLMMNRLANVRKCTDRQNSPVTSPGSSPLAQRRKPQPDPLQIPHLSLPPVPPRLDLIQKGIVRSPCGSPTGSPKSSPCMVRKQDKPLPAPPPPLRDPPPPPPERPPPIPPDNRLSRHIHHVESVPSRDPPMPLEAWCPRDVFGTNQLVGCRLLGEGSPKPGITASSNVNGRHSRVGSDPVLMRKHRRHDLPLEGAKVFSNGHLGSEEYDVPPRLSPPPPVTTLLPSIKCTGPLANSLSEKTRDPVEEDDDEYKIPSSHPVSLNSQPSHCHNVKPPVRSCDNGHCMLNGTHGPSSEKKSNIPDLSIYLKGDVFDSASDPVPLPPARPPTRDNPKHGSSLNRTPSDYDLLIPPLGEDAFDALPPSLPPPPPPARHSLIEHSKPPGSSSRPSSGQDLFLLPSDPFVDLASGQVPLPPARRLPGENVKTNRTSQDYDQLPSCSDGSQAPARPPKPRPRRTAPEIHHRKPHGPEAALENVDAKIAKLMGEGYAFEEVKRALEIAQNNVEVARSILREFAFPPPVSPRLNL
Experiment: Cbl-b activity assay (HTRF, interaction between Cbl-b protein and UbcH5B-Ub)
Conditions: inhibition of interaction between Biotin-Cbl-b protein and Eu-Ubquitin-UbcH5B, HTRF signal 665 nm/615 nm
Method: Experiment purpose: Testing of inhibitory activity of compounds on the interaction between Cbl-b protein and UbcH5B-Ub Experimental method: Eu-Ubquitin-UbcH5B was prepared by incubating Eu-Ubquitin (Cisbio) with UbcH5B (ENZO), E1 (ENZO) at 37° C. for 4 hours. Eu-Ubquitin-UbcH5B was aliquoted and stored at −80° C. Cbl-b activity assay was performed in 384-well plates (Perkin Elmer). […] IC50 was calculated using IDBS XLfit.
pIC50: −log10 of the molar value.
quantity_measured: pIC50

Field: example entries. Status: answers known.
| molecule | pIC50 |
| --- | --- |
| CCc1cc(CN2CCC[C@H](C)C2)cn2c(=O)c(-c3cccc(C4(c5nncn5C)CC(C)C4)c3)cnc12 (stereo partly shown) | 7.19 |
| Cc1cc(CN2CCC[C@H](C)C2)cc2c(=O)c(-c3cccc(C4(c5nncn5C)CC(C)C4)c3)coc12 (stereo partly shown) | 8.01 |
| Cc1cc(CN2CCC[C@H](C)C2)cc2c(=O)c(-c3cccc(C4(c5nncn5C)CC(F)(F)C4)c3)coc12 | 7.19 |

[a] CC1CC(c2cccc(-c3cnc4c(C(F)(F)F)cc(CN5CC6CCC5C6)cn4c3=O)c2)(c2nncn2C)C1 (stereo not shown)
[b] C[C@H]1CCCN(Cc2cc(C(F)(F)F)c3ncc(-c4cccc([C@]5(c6nncn6C)C[C@@H](C)C5)c4)c(=O)n3c2)C1 [Compound 2-P1]
[c] CC1CC(c2cccc(-c3cnc4ccc(CN5CCC[C@H](C)C5)cn4c3=O)c2)(c2nncn2C)C1 (stereo partly shown)
[d] CC1CC(c2cccc(-c3cnc4c(C(F)(F)F)cc(CN5CCO[C@H](C)C5)cn4c3=O)c2)(c2nncn2C)C1 (stereo partly shown)
QUERY: Hey, quick one: sort these by pIC50, low to high? Field: ranking. Enter the labels in the order requested.
RESULT: d, a, c, b
(d: 6.57, a: 6.78, c: 7.12, b: 7.57)

====

Tested on: Jurkat T cells
Assay: Jurkat T activation assay (IL-2 release, ELISA)
Type: cell-based
Conditions: IL-2 release of Jurkat T cells, Anti-Human CD3/CD28 stimulation, 48 hours, IL-2 ELISA
quantity_measured: EC50 (nM)

[P] Cc1c(F)c(CN2CCC[C@H](C)C2)cc2c(=O)c(-c3cccc(C4(c5nncn5C)CC(C)C4)c3)coc12 (stereo in doubt) [Compound 121]
[Q] Cc1cc(CN2CCC[C@H](C)C2)cc2c(=O)c(-c3cccc(C4(c5nncn5C)CC(F)C4)c3)coc12 (stereo partly drawn) [Compound 69]
[R] Cc1cc(CN2CCC[C@H](C)C2)cc2c(=O)c(-c3cccc(C4(c5nncn5C)CC(C)C4)c3)coc12 (stereo partly drawn) [Compound 58]
QUERY: Could you put the items above in increasing order of their EC50? Field: ranking. Enter the labels in the order requested.
RESULT: R, P, Q

====

Tested on: Jurkat T cells
Assay: Jurkat T activation assay (IL-2 release, ELISA)
Assay type: cell-based
Conditions: IL-2 release of Jurkat T cells, Anti-Human CD3/CD28 stimulation, 48 hours, IL-2 ELISA
quantity_measured: EC50 (nM)

| molecule | unit_symbol | recorded_number |
| --- | --- | --- |
| Cc1c(F)c(CN2CCC[C@H](C)C2)cc2c(=O)c(-c3cccc(C(c4nncn4C)C4CC4)c3)coc12 (stereo partly drawn) | nM | 383 |
| Cc1cc(CN2CCC[C@H](C)C2)cc2c(=O)c(-c3cccc(C(F)(c4nncn4C)C(F)(F)F)c3)coc12 (stereo partly drawn) | nM | 279 |
| CC1CC(c2cccc(-c3cnc4c(C(F)(F)F)cc(CN5CC6CC(C)(C6)C5)cn4c3=O)c2)(c2nncn2C)C1 (stereo not drawn) | nM | 525 |

[a] Cc1cc(CN2CCC[C@H](C)C2)cc2c(=O)c(-c3cccc(C(F)(c4nncn4C)C4CC4)c3)coc12 (stereo partly drawn)
[b] CC(NC1(C)CCC1)c1cc(C(F)(F)F)c2ncc(-c3cccc([C@]4(c5nncn5C)C[C@@H](C)C4)c3)c(=O)n2c1 (stereo partly drawn)
[c] Cc1cc(C(C)NC2(C)CCC2)cc2c(=O)c(-c3cccc([C@]4(c5nncn5C)C[C@@H](C)C4)c3)coc12 (stereo partly drawn)
QUERY: Put the entries in order of EC50, starting with the largest number. Field: ranking. Enter the labels in the order requested.
RESULT: a, b, c
